- MEASURED_TARGET: F508delCFTR (Homo sapiens, UniProt P13569, DEL508-508)
- Construct: expressed in transfected cells; host or cells: CFBE41o- human lung-derived epithelial cells (CFBE4lo-F508delCFTR-HRP), doxycycline-inducible
- Sequence (P13569 with tags, fused parts or gaps DEL508-508): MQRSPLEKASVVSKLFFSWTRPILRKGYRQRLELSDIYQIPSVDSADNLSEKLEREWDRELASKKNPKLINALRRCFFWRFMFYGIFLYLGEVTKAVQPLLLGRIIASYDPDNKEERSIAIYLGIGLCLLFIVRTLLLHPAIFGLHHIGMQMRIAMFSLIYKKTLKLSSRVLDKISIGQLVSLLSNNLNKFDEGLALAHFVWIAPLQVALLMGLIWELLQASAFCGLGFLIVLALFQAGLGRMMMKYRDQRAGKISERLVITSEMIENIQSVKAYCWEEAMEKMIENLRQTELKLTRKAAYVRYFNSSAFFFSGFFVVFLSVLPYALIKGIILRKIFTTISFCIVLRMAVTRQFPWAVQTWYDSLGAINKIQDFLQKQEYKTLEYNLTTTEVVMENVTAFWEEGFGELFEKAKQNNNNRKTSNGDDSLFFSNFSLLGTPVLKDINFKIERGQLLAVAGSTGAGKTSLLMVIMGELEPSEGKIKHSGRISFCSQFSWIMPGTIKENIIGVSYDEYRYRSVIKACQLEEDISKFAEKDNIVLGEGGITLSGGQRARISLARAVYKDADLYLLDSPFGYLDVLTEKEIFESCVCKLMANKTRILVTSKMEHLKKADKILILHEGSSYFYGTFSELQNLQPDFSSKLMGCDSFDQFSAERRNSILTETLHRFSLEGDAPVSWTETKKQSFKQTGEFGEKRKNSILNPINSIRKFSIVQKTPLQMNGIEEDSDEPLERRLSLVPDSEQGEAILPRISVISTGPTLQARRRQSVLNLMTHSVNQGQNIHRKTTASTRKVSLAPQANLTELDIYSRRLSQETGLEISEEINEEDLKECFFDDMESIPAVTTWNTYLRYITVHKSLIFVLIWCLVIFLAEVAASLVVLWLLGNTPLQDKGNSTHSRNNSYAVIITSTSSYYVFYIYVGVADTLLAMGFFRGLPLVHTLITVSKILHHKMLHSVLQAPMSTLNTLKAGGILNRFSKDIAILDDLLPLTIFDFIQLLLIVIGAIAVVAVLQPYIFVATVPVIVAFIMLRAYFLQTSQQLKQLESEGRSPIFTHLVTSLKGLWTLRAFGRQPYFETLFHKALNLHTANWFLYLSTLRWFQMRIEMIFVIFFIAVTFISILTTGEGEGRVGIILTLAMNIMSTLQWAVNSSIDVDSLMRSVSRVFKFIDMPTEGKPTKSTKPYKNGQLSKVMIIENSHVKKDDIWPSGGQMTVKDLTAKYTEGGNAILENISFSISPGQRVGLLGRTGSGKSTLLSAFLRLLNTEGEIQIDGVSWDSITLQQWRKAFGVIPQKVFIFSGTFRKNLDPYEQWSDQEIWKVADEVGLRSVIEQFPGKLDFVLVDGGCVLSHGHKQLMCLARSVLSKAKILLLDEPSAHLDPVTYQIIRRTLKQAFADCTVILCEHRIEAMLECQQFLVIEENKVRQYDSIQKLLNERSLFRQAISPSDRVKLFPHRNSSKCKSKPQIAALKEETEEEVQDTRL
- METHOD_NOTES: Cell Surface Expression-Horse Radish Peroxidase (CSE-HRP) Assay
- Assay type: cell-based
- MEASUREMENT_CONTEXT: with co-corrector (2 μM of 3-[(2R,4R)-4-({[1-(2,2-difluoro-1,3-benzodioxol-5-yl)cyclopropyl]carbonyl}amino)-7-methoxy-3,4-dihydro-2H-chromen-2-yl]benzoic acid); read-out: EC50 (with co-corrector)
MEASURE_NAME: EC50

The following compounds have reported results that may help.
INSERT INTO assay_data (compound, val) VALUES
  ('COc1ccc(C(C)(C)C)cc1CN[C@H]1[C@H](C(C)(C)C)[C@@H](C(=O)O)N(C(=O)C2CC3C(CC2C)C3(C)C)[C@H]1c1ccccc1 (stereo partly drawn)', '1 to 10 µM'),
  ('COc1ccc(C(F)(F)F)cc1CN[C@@H]1[C@@H](C(C)(C)C)[C@H](C(=O)O)N(C(=O)C2CCCCC2)[C@@H]1c1cccnc1N(C)C (racemic)', '1 to 10 µM'),
  ('COc1ccc(C23CC(C2)C3)cc1CN[C@H]1[C@H](C(C)(C)C)[C@@H](C(=O)O)N(C(=O)C2CCCCC2)[C@H]1c1ccccc1F', '< 1 µM');

Recorded result, COc1cc(C(F)(F)F)cc(N[C@@H]2[C@@H](C(C)(C)C)[C@H](C(=O)O)N(C(=O)C3CCCCC3)[C@@H]2c2ccccc2)n1 (racemic) , EC50: 1 to 10 µM

Recorded result, COc1ccc(C(C)(C)C)cc1CN[C@H]1[C@H](C(C)(C)C)[C@@H](C(=O)O)N(C(=O)C2(c3ccccc3)COc3ccccc32)[C@H]1c1ccccc1 (stereo partly drawn) , EC50: < 1 µM

Recorded result, COc1ccc(C(C)(C)C)cc1CN[C@H]1[C@H](C(C)(C)C)[C@@H](C(=O)O)N(C(=O)OC(C)C)[C@H]1c1cccnc1N1CCC1 , EC50: 1 to 10 µM

====

- MEASURED_TARGET: F508delCFTR (Homo sapiens, UniProt P13569, DEL508-508)
- Construct: expressed in transfected cells; host or cells: CFBE41o- human lung-derived epithelial cells (CFBE4lo-F508delCFTR-HRP), doxycycline-inducible
- METHOD_NOTES: Cell Surface Expression-Horse Radish Peroxidase (CSE-HRP) Assay
- Type: cell-based
- MEASUREMENT_CONTEXT: test compound without co-corrector; read-out: EC50 (without co-corrector)
pEC50: −log10 of the molar value.
In this section, each of the molecules is paired with its reported pEC50.

The following molecules have reported results that may help.
INSERT INTO results (molecule, measure_name, val) VALUES
  ('COc1ccc(C(C)(C)C)cc1CN[C@H]1[C@H](C(C)(C)C)[C@@H](C(=O)O)N(C(=O)[C@@H]2C[C@H]2c2cccnc2)[C@H]1c1ccccc1 (relative stereo) [Example I-139]', 'pEC50', '5.00 to 6.00'),
  ('COc1ncc(C2CC2)cc1CN[C@H]1[C@H](C(C)(C)C)[C@@H](C(=O)O)N(C(=O)[C@@H]2CCCCO2)[C@H]1c1ccccc1C(C)C [Example 115]', 'pEC50', '5.00 to 6.00'),
  ('COc1ncc(CC2CCCCC2)cc1CN[C@H]1[C@H](C(C)(C)C)[C@@H](C(=O)O)N(C(=O)C2CCCCC2)[C@H]1c1ccccc1 [Example I-71]', 'pEC50', '> 6.00');

Recorded result, COc1nc(C2CCC2)ccc1CN[C@H]1[C@H](C(C)(C)C)[C@@H](C(=O)O)N(C(=O)OC(C)C)[C@H]1c1cccnc1N(C)C [II-548] , pEC50: 5.00 to 6.00

Recorded result, COc1ccc(CN[C@H]2[C@H](C(C)(C)C)[C@@H](C(=O)O)N(C(=O)C3CCCCC3)[C@H]2c2ccccc2)cc1Cl [III-126] , pEC50: 5.00 to 6.00

Recorded result, COc1cc(N[C@H]2[C@H](C(C)(C)C)[C@@H](C(=O)O)N(C(=O)C3CCCCC3)[C@H]2c2ccccc2)nc(OC)n1 (racemic) [Example I-9] , pEC50: < 5.00

====

- MEASURED_TARGET: F508delCFTR (Homo sapiens, UniProt P13569, DEL508-508)
- Construct: expressed in transfected cells; host or cells: CFBE41o- human lung-derived epithelial cells (CFBE4lo-F508delCFTR-HRP), doxycycline-inducible
- METHOD_NOTES: Cell Surface Expression-Horse Radish Peroxidase (CSE-HRP) Assay
- Format: cell-based
- MEASUREMENT_CONTEXT: test compound without co-corrector; read-out: EC50 (without co-corrector)
MEASURE_NAME: EC50

The following molecules have reported results that may help.
INSERT INTO results (molecule, measure_name, val) VALUES
  ('COc1ncc(C2CCC2)cc1CN[C@H]1[C@H](C(C)(C)C)[C@@H](C(=O)O)N(C(=O)[C@@H]2CCCO2)[C@H]1c1ccccc1C1CC1 [Example 107]', 'EC50', '1 to 10 µM'),
  ('CC(C)(C)[C@H]1[C@H](NCC2(c3cccc(Cl)c3)CCOCC2)[C@H](c2ccccc2)N(C(=O)C2CCCCC2)[C@@H]1C(=O)O [Example 63]', 'EC50', '1 to 10 µM');

Recorded result, CC(C)c1cc(C(F)(F)F)cc(N[C@H]2[C@H](C(C)(C)C)[C@@H](C(=O)O)N(C(=O)C3CCCCC3)[C@H]2c2ccccc2)n1 [Example I-54] , EC50: 1 to 10 µM

Recorded result, COc1ccc(C(C)(C)C)cc1CN[C@H]1[C@H](C(C)(C)C)[C@@H](C(=O)O)N(C(=O)C2COc3ccccc3O2)[C@H]1c1cccnc1N(C)C (single isomer, unassigned) [II-472] , EC50: 1 to 10 µM

Recorded result, COc1ccc(C(C)(C)C)cc1CN[C@H]1[C@H](C(C)(C)C)[C@@H](C(=O)O)N(C(=O)c2cc3occc3n2C)[C@H]1c1ccccc1 [Example I-102] , EC50: 1 to 10 µM

Recorded result, COc1ccc(C(C)(C)C)cc1CN[C@H]1[C@H](C(C)(C)C)[C@@H](C(=O)O)N(C(=O)C2CCCCC2)[C@H]1c1ccccc1F [Example 24] , EC50: < 1 µM

====

- MEASURED_TARGET: F508delCFTR (Homo sapiens, UniProt P13569, DEL508-508)
- Construct: expressed in transfected cells; host or cells: CFBE41o- human lung-derived epithelial cells (CFBE4lo-F508delCFTR-HRP), doxycycline-inducible
- METHOD_NOTES: Cell Surface Expression-Horse Radish Peroxidase (CSE-HRP) Assay
- Assay type: cell-based
- MEASUREMENT_CONTEXT: with co-corrector (2 μM of 3-[(2R,4R)-4-({[1-(2,2-difluoro-1,3-benzodioxol-5-yl)cyclopropyl]carbonyl}amino)-7-methoxy-3,4-dihydro-2H-chromen-2-yl]benzoic acid); read-out: EC50 (with co-corrector)
pEC50: −log10 of the molar value.
MEASURE_NAME: pEC50

INSERT INTO measurements (compound, val) VALUES
  ('COc1ccc(C(C)(C)C)cc1CN[C@H]1[C@H](C(C)(C)C)[C@@H](C(=O)O)N(C(=O)C2CCCCC2)[C@H]1c1ccccc1C(C)C', '> 6.00'),
  ('CC(C)(C)[C@H]1[C@H](NCc2ccc(OC(F)(F)F)c(F)c2)[C@H](c2ccccc2)N(C(=O)C2CCCCC2)[C@@H]1C(=O)O', '5.00 to 6.00'),
  ('CC(C)(C)[C@@H]1[C@@H](NCc2cccc(Cl)c2O)[C@@H](c2ccccc2)N(C(=O)C2CCCCC2)[C@H]1C(=O)O (racemic)', '5.00 to 6.00'),
  ('COc1cccc(OC)c1CN[C@H]1[C@H](C(C)(C)C)[C@@H](C(=O)O)N(C(=O)C2CCCCC2)[C@H]1c1ccccc1', '5.00 to 6.00');

Now consider the entry below.
Here COc1ncc(C2CCCCC2)cc1CN[C@H]1[C@H](C(C)(C)C)[C@@H](C(=O)O)N(C(=O)C2CCCCC2)[C@H]1c1ccccc1 was tested on F508delCFTR (Homo sapiens, UniProt P13569, DEL508-508), and its pEC50 came to > 6.00

====

- MEASURED_TARGET: F508delCFTR (Homo sapiens, UniProt P13569, DEL508-508)
- Construct: expressed in transfected cells; host or cells: CFBE41o- human lung-derived epithelial cells (CFBE4lo-F508delCFTR-HRP), doxycycline-inducible
- METHOD_NOTES: Cell Surface Expression-Horse Radish Peroxidase (CSE-HRP) Assay
- Type: cell-based
- MEASUREMENT_CONTEXT: CSE-HRP; test compound without co-corrector; read-out: EC50 (without co-corrector)
pEC50: −log10 of the molar value.
In this section, each of the compounds is paired with its reported pEC50.

INSERT INTO results (compound, val) VALUES
  ('COc1ccc(C(C)(C)C)cc1CN[C@H]1[C@H](C(C)(C)C)[C@@H](C(=O)O)N(C(=O)C2CCc3ccccc3O2)[C@H]1c1ccccc1 (single isomer, unassigned)', '> 6.00');

Recorded result, COc1cc(C(F)(F)F)ccc1CN[C@H]1[C@H](C(C)(C)C)[C@@H](C(=O)O)N(C(=O)C2CCCCO2)[C@H]1c1cccnc1OC (relative stereo) , pEC50: 5.00 to 6.00

Recorded result, COc1ccc(C(F)(F)F)cc1CN[C@H]1[C@H](C(C)(C)C)[C@@H](C(=O)O)N(C(=O)C2Cc3ccccc3CO2)[C@H]1c1ccccc1 (stereo partly shown) , pEC50: 5.00 to 6.00

Recorded result, COc1ccc(C(F)(F)F)cc1CN[C@@H]1[C@@H](C(C)(C)C)[C@H](C(=O)O)N(C(=O)C2CCCCC2)[C@@H]1c1ccccc1OC (racemic) , pEC50: 5.00 to 6.00

Recorded result, COc1ccc(C2(C)CCC2)cc1CN[C@H]1[C@H](C(C)(C)C)[C@@H](C(=O)O)N(C(=O)[C@@H]2CCCO2)[C@H]1c1cccnc1N(C)C , pEC50: 5.00 to 6.00

Recorded result, COc1ccc(-c2cccc(F)c2F)cc1CN[C@H]1[C@H](C(C)(C)C)[C@@H](C(=O)O)N(C(=O)C2CCCCC2)[C@H]1c1ccccc1 , pEC50: > 6.00

Recorded result, COc1cc(C(C)(C)C)ccc1CN[C@H]1[C@H](C(C)(C)C)[C@@H](C(=O)O)N(C(=O)OC(C)C)[C@H]1c1ccccc1OC , pEC50: 5.00 to 6.00

Where these numbers come from: patent US20180099931A1
